IC50 reference
molecular target: Telomerase reverse transcriptase (Homo sapiens)
Sequence (O14746 whole entry): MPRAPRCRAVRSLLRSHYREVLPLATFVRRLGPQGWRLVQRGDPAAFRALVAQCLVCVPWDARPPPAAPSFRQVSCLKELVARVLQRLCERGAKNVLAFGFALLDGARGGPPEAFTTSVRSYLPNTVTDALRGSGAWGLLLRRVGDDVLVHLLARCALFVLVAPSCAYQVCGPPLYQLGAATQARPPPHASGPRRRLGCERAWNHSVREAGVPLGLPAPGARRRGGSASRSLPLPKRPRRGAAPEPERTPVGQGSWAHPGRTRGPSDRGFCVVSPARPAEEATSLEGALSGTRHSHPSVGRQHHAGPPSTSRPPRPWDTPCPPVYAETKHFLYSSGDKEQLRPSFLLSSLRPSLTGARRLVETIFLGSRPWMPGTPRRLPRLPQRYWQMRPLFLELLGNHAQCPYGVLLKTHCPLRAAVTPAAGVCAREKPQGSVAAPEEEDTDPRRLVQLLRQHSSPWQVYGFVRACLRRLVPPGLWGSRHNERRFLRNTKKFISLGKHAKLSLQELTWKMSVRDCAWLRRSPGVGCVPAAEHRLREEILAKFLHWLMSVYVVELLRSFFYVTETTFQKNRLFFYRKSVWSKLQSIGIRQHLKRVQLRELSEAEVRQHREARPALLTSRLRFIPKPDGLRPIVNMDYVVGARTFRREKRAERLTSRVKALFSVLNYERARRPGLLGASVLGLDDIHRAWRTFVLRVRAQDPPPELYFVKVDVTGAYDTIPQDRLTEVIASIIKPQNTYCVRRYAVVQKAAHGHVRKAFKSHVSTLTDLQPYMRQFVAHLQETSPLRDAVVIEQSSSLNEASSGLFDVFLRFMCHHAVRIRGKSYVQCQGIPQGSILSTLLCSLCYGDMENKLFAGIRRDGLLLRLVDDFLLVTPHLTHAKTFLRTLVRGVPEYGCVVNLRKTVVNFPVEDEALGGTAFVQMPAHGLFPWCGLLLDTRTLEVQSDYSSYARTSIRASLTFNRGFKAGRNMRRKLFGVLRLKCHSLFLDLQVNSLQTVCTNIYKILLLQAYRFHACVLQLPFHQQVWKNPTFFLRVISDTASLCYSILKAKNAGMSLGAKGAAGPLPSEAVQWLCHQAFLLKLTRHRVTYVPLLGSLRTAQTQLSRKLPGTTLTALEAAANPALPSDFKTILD
Please respond with the number in nM and leave the unit unwritten.

In plain terms, `Cc1cc(N)c2cc(Nc3ccnc(Nc4ccc5nc(C)cc(N)c5c4)n3)ccc2n1` has a documented IC50 of 490

Input `CSc1nc(Nc2ccc3ncccc3c2)nc(Nc2ccc3nc(C)cc(N)c3c2)n1` . Output IC50: 2600

For reference, reported IC50 for `N=C(N)c1ccc(Nc2nc(N)nc(Nc3ccc(C(=N)N)cc3)n2)cc1` stands at 740

// field: IC50; key: `CCN(CC)c1nc(Nc2ccc3ncccc3c2)nc(Nc2ccc3nc(C)cc(N)c3c2)n1` ; value = 2500

For `C[n+]1c2ccccc2c(N)c2cc(Nc3nc(N)nc(Nc4ccc5c(c4)c(N)c4ccccc4[n+]5C)n3)ccc21` the compound record lists IC50 as 890

Continuing:
Recorded result, `CC[n+]1c(C)cc(N)c2cc(Nc3nc(N)nc(Nc4ccc5c(c4)c(N)cc(C)[n+]5CC)n3)ccc21` , IC50: 56

Lab note: `CSc1nc(Nc2ccc3nc(C)cc(C)c3c2)nc(Nc2ccnc3ccccc23)n1` gave IC50 of 3400

* * *

molecular target: UniProt O14746
pIC50: −log10 of the molar value.
Outcome label depends on pIC50 relative to 6: at/above gives condition met, below gives condition not met.

Take a look at these entries with their results.
Enquiry: Determine whether this molecule has pIC50 no lower than 6: `COc1cc(C)nc2ccc(Nc3nc(Nc4ccc5nc(C)cc(N)c5c4)nc(SC)n3)cc12`
Return: condition not met

Enquiry: Does pIC50 meet or surpass 6 for `CSc1nc(Nc2cccc(C(=N)N)c2)nc(Nc2ccc3nc(C)cc(N)c3c2)n1` ?
Return: condition not met

Enquiry: Please check the record `CSc1nc(Nc2ccc3nc(C)cc(N(C)C)c3c2)nc(Nc2ccc3nc(C)cc(N(C)C)c3c2)n1` and state if its pIC50 is at or above 6.
Return: condition met

Enquiry: Please check the record `CNc1nc(Nc2ccc3nc(C)cc(N)c3c2)nc(Nc2ccc3nc(C)cc(N)c3c2)n1` and state if its pIC50 is at or above 6.
Return: condition met

Enquiry: Reported pIC50 at or above 6? `CSc1nc(Nc2ccc3nc[nH]c3c2)nc(Nc2ccc3nc(C)cc(C)c3c2)n1`
Return: condition not met

Enquiry: Say whether `COc1cc(C)nc2ccc(Nc3nc(Nc4ccc5nc(C)cc(OC)c5c4)nc(SC)n3)cc12` shows pIC50 of 6 or more.
Return: condition not met

---
Enquiry: Check if pIC50 >= 6 (inclusive). Item: `CNc1nc(Nc2ccc3nc(C)cc(NC)c3c2)nc(Nc2ccc3nc(C)cc(NC)c3c2)n1`
Return: condition met

Enquiry: hey, is pIC50 for this one >= 6? `CCn1c2ccccc2c2cc(Nc3nc(Nc4ccc5nc(C)cc(N)c5c4)nc(SC)n3)ccc21`
Return: condition not met
